assayed.target: T1, Coa-C (Coa 311-636) (Staphylococcus aureus strain Newman, UniProt P08515 1-218 = GST)
T1 construct: also called rCoa-C; Coa-C311-636
T1 sequence (P08515 whole entry): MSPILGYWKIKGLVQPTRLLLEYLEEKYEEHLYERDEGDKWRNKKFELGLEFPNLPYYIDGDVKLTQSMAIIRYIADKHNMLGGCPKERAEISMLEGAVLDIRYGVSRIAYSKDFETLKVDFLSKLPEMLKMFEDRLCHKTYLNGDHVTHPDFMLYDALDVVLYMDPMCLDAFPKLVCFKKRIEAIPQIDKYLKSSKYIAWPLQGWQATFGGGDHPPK
assay.overview: apparent Kd from half-maximal binding in ELISA (GraphPad Prism)
parameter.measured: Kd (nM)

- FBE5-C1 (scFv, V domains shown) VH: EVQLVETRGGVVQPGRSLRLSCAASGFTFSSYGMHWVRQAPGKGLEWVAVISYDGSNKYYADSVKGRFTISRDNSKNTLYLQMNSLRAEDTAVYYCAREGTYYYDSSGYYEGGFDYWGQGTLVTVSS VL: QSVLTQPPSASGTPGQRVTISCSGSSSNIGSGPVNWYQQLPGTAPKLLIYSDTRRPSGIPDRLSGSKSGTSASLGISGLQSEDEADYYCAAWDDSLNGYAFGSGTKVTVL: 1.13
- FBE5-B9 (scFv, V domains shown) VH: EVQLVESRGGVVQPGRSLRLSCAASGFTFSSYGMHWVRQAPGRGLEWVAVISYDGSNKYYADSVKGRFTISRDNSKNTLYLQMNGLRSDDTAVYYCARGGDDYGDYFDYWGQGTLVTVSS VL: QSVLTQPPSVSAAPGQKVTISCSGSSSNIGNNYVSWYQQLPGTAPKLLIYDNNKRPSGIPDRFSGSKSGTSATLGITGLQTGDEADYYCGTWDSSLSAAVFGGGTKLTVL: 1.74
- FBE5-D9 (scFv, V domains shown) VH: QVQLVESGGGVVQPGRSLRLSCAASGFTFSSYGMHWVRQAPGKGLEWVAVISYDGSNKYYADSVKGRFTISRDNSKNTLYLQMNSLRAEDTAVYYCAKNQEWLVPGYWGQGTLVTVSS VL: QSALTQPASVSGSPGQSITISCTGTSSDVGGYNYVSWYQQHPGKAPKLMIYDVSNRPSGVSNRFSGSKSGNTASLTISGLQAEDEADYYCSSYTSSSTLVFGGGTKLTVL: 0.779
- FBE5-A12 (scFv, V domains shown) VH: QVQLVESGGGVVQPGRSLRLSCAASGFTFSSYGMHWVRQAPGKGLEWVAVISYDGSNKYYADSVKGRFTISRDNSKNTLYLQMNSLRGEDTAVYYCAREGGWEPNGLDYWGQGTLVTVSS VL: QAVLTQPPSASGTPGQRVTISCSGSDFNVGTNYVNWYQQLPGSAPKLLIYRNNQRPSGVPDRFSGSKSGTSATLGITGLQTGDEADYYCGTWDSSLSAEVFGGGTKLTVL: 0.555
- FBE5-E5 (scFv, V domains shown) VH: QMQLVQSGGGVVQPGRSLRLSCAASGFTFSSYGMHWVRQAPGKGLEWVAVISYDGSNKYYADSVKGRFTISRDNSKNTLYLQMNSLRGEDTAVYYCAREGGWEPNGLDYWGQGTLVTVSS VL: QSVLTQPPSVSAAPGQKVTISCSGSSSNIGNNYVSWYQQLPGTAPKLLIYDNNKRPSGIPDRFSGSKSGTSATLGITGLQTGDEADYYCGTWDSSLSAEVFGGGTKLTVL: 6.27
- FBE5-F9 (scFv, V domains shown) VH: QMQLVQSGGGVVQPGRSLRLSCAASGFTFSSYGMHWVRQAPGKGLEWVAVISYDGSNKYYADSVKGRFTISRDNSKNTLYLQMNSLRAEDTAVYYCAKEGDGDYGGVLDYWGQGTLVTVSS VL: QSVLTQPPSVSAAPGQKVTISCSGSSSNIEKNYVSWYQQLPGTAPKLLIYDNNKRPSGIPDRFSGSKSGTSATLGITGLQTGDEADYYCGTWDSSLSAVVFGGGTKLTVL: 2.85
- FBE5-C8 (scFv, V domains shown) VH: QMQLVQSGGGVVQPGRSLRLSCAASGFIFSNYGMHWVRQAPGKGLEWVAVISYDGSNKYYADSVKGRFTISRDNSKNTLYLQMDSLRAEDTAVYYCAREGVGGDYGDLPTGPYYYYGMDVWGQGTTVTVSS VL: QSVLTQPPSVSAAPGQKVTISCSGSSSNIGNNSVSWYQQLPGTAPKLLIYDNNKRPSGIPDRFSGSKSGTSATLGITGLQTGDEADYYCETWDSSLSAVVFGGGTKLTVL: 13.5
- FBE5-F11 (scFv, V domains shown) VH: QVQLQESGGGVVQPGRSLRLSCAASGFTFSSYGMHWVRQAPGKGLEWVAVISYDGSNKYYADSVKGRFTISRDNSKNTLYLQMNSLRAEDTAVYYCAKDLASSGFDYWGQGTLVTVSS VL: QSVLTQPPSVSAAPGQKVTISCSGSSSNIGNNYVSWYQQLPGTAPKLLIYDNNKRPSGIPDRFSGSKSGTSATLGITGLQTGDEADYYCGTWDSSLSAEVFGGGTKLTVL: 0.513
